// data source = ChEMBL document CHEMBL3351865

Test Protocol: in vitro
Measurement Context: human, plasma
Description: Unbound fraction in human plasma
Measured Metric: fraction unbound
Give bare numbers.

# Smiles Data, Measured Metric, Reported Value
rows = [
    ("CN1CCN(Cc2ccc3nc(Nc4ccc(C(F)(F)F)cn4)[nH]c3c2)CC1", "fraction unbound", 0.275),
    ("Cc1nc(Nc2nc3cnc(N4CCN(C)CC4)cc3[nH]2)cc(C2CC2)c1F", "fraction unbound", 0.051),
]

Quick one: give me fraction unbound for each item below, same order please.
1. CN1CCC(c2ccc3nc(Nc4ccc(C(F)(F)F)cn4)[nH]c3c2)CC1
2. CN1CCN(c2cc(Cl)c3nc(Nc4ccc(Br)cn4)[nH]c3c2)CC1
3. Cc1ccc(Nc2nc3ccc(N4CCN(C)CC4)cc3[nH]2)nc1

### Response
1: 0.134; 2: 0.301; 3: 0.183
